Hello, the source for this data is PubChem BioAssay AID2740, in case you need it.

Give measured GFP fluorescence, lower = active (kMESF (background-subtracted)) for each item. Keep answers brief.
Assay: TOR pathway RPL19A-GFP modulators, concentration series – cell-based, S. cerevisiae, flow cytometry, MLPCN hits, dose response (AID 2740);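 also: background is signal of the same compound in parental non-GFP s288c yeast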
Conditions: S. cerevisiae RPL19A-GFP strain, flow cytometry fluorescence, 3 h; at 33 µM (top of the series)
Lab note: write the figure by itself, no unit.

Return reported GFP fluorescence, lower = active (kMESF (background-subtracted)). Input compound: `O=S(=O)(c1ccccc1)c1ccc(C(F)(F)F)cn1`
45.7

Please report the measured GFP fluorescence, lower = active (kMESF (background-subtracted)) for `COc1cc(N=c2ssnc2Cl)cc(OC)c1`
31.6

Supply reported GFP fluorescence, lower = active (kMESF (background-subtracted)) belonging to this compound: `CC(C)Oc1ccc(C(=O)/C=C2/C(=O)Nc3ccccc32)cc1`
29

Let me know recorded GFP fluorescence, lower = active (kMESF (background-subtracted)) for `O=C(Nc1nc2ccc(F)cc2s1)c1ccccn1` , thanks.
48.2

Tell me GFP fluorescence, lower = active (kMESF (background-subtracted)) reported for `O=c1cc(-c2ccccc2)cc(-c2ccccc2)n1O`
15.4

Tell me its GFP fluorescence, lower = active (kMESF (background-subtracted)) given `COc1cc(/C=C2\C(=O)ON=C2c2ccc(Cl)cc2)ccc1O` as the entry.
40.8

====

Assay: TOR pathway RPL19A-GFP modulators, concentration series – cell-based, S. cerevisiae, flow cytometry, MLPCN hits, dose response (AID 2740);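 also: background is signal of the same compound in parental non-GFP s288c yeast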
Conditions: S. cerevisiae RPL19A-GFP strain, flow cytometry fluorescence, 3 h; at 33 µM (top of the series)
quantity.kind: GFP fluorescence, lower = active (kMESF (background-subtracted))
Please respond with just the number, no unit label.

Give reported GFP fluorescence, lower = active (kMESF (background-subtracted)) value for `CCCCc1ccc(/C=C2/C(=O)ON=C2c2ccccc2)s1`
44.1

Respond only with GFP fluorescence, lower = active (kMESF (background-subtracted)) recorded for `CCOc1ccc(NC2=C(Cl)C(=O)N(Cc3ccccc3)C2=O)cc1`
44.3

Complete the entry with GFP fluorescence, lower = active (kMESF (background-subtracted)) for `COc1ccc(NC2=C(Cl)C(=O)N(CCc3ccccc3)C2=O)c(OC)c1`
39.1

Provide one value: measured GFP fluorescence, lower = active (kMESF (background-subtracted)) of `COc1ccc(CCNC2=C(Cl)C(=O)N(CCc3ccc(OC)c(OC)c3)C2=O)cc1OC`
42.6

Report GFP fluorescence, lower = active (kMESF (background-subtracted)) for `COc1ccc2c(/C=C/c3cc[n+](C)cc3)c[nH]c2c1`
39

Determine its reported GFP fluorescence, lower = active (kMESF (background-subtracted)): `O=C(Oc1c(Cl)cc(Cl)c2cccnc12)c1cccc([N+](=O)[O-])c1`
24.8

Find the measured GFP fluorescence, lower = active (kMESF (background-subtracted)) of `C=CCN1C(=O)/C(=C/c2ccc(-c3ccc(F)cc3)o2)SC1=S` and report it.
34.7

Let me know recorded GFP fluorescence, lower = active (kMESF (background-subtracted)) for `COc1cccc(/C=N/Nc2ncc(C(F)(F)F)cc2Cl)c1O` , thanks.
38.7

Specify reported GFP fluorescence, lower = active (kMESF (background-subtracted)) for the compound shown: `O/C=c1\ccc2cccc3nc(C(F)(F)F)nc1c23`
53.9

Indicate its recorded GFP fluorescence, lower = active (kMESF (background-subtracted)); the compound in question is `Cc1c(Cc2ccccc2)c(NCCN(C)C)n2c(nc3ccccc32)c1C#N`
46.6

Find the measured GFP fluorescence, lower = active (kMESF (background-subtracted)) of `CCC(=O)Oc1oc(-c2ccccc2)nc1C=Nc1ccccc1OC` and report it.
41.6

# return recorded GFP fluorescence, lower = active (kMESF (background-subtracted)) for input `Cc1cc2ccccn2c1C(=O)c1ccc([N+](=O)[O-])o1`
20.7

Specify GFP fluorescence, lower = active (kMESF (background-subtracted)) for `Cc1ccc(-c2nc(N)c3c(-c4ccc(C)cc4)nn(C(C)(C)C)c3n2)cc1` and stop.
43.1

Provide only the value of recorded GFP fluorescence, lower = active (kMESF (background-subtracted)) for `COc1ccc(OC)c(S(=O)(=O)ON2C(=O)c3ccccc3C2=O)c1`
25.6

Consider the compound `COc1cccc(/C=C/C(=O)c2c(O)cc(C)oc2=O)c1O` . State its measured GFP fluorescence, lower = active (kMESF (background-subtracted)).
40.4

Please look at this compound and report its GFP fluorescence, lower = active (kMESF (background-subtracted)): `O=C(O)c1cccc(S(=O)(=O)Nc2ccc(S(=O)(=O)N3CCOCC3)cc2)c1`
38.7

Query GFP fluorescence, lower = active (kMESF (background-subtracted)) for O=C(Nc1ccc(O)cc1)C1CCCN1S(=O)(=O)c1ccc(F)cc1 (stereo not drawn)
45

Tell me its GFP fluorescence, lower = active (kMESF (background-subtracted)) given `Clc1ccc(N=c2ssnc2Cl)cc1` as the entry.
36.9

Identify GFP fluorescence, lower = active (kMESF (background-subtracted)) associated with the compound `Cc1ccsc1/C=N/Nc1ncc(Cl)cc1Cl`
49.1

Return GFP fluorescence, lower = active (kMESF (background-subtracted)) (reported value) for this compound: `Cc1ccc(N=c2ssnc2Cl)cc1`
23

Look up GFP fluorescence, lower = active (kMESF (background-subtracted)) of `CC(C)[C@]1(c2ccccc2)ON(c2ccccc2C(F)(F)F)C1=O` and report it.
36

Given COC(=O)c1cc(N2C(=O)C3C(C2=O)C2(C)C=CC3(C)O2)ccc1Cl (stereo not drawn) , respond with its GFP fluorescence, lower = active (kMESF (background-subtracted)).
28.8

Give a short answer stating reported GFP fluorescence, lower = active (kMESF (background-subtracted)) for `CC(=O)NN1C(=O)/C(=C/c2ccc(Br)o2)SC1=S` .
40.5
